# Test system: PfAP2-HC AP2 domain (GST-tagged)
# testDetails: gcPBM binding intensity (ln(normalized median fluorescence intensity)); higher = stronger DNA binding
Over roughly 25,000 sequences, “ln(normalized median fluorescence intensity)” has its median near 9.7; the highest 2% begin near 11. The list comes from a sample in which the highest values are over-represented; it also holds close analogues and randomly drawn sequences.
outcomeMeasure: gcPBM binding intensity (ln)
Answer field: number only, no words.

# example entries with known answers
                            primarysequence  valuereported
0  TAAAATATAAAACACACACACATATATATATATATT [CACACA_site224]           10.3
1  AAAATATGTATGTAAAGTACTAATATACAAATTTTT [XGTACX_site5186]           9.62
2  TACACAAAAATAAACACACACACATATATATATATA [CACACA_site1000]           10.2
3  AATATAAATAAACACACACACATATATATATATATT [CACACA_site2906]             11

Alright, here's another sequence for you.
Read the entry AAAAAATAAAAAAAAACACACACATACAAGCATATA [CACACA_site8451] and write its reported gcPBM binding intensity (ln).
11.1
